system: double-stranded hairpin DNA: 5′-d(GGCAGAAGAAAAAGAGACGC)-C18 spacer-d(GCGTCTCTTTTTCTTCTGCC)-3′ (SEQ ID NO: 23); test: Melting temperature (Tm) measurement, triple strand-forming ability, with double-stranded hairpin DNA; format: binding; conditions: triplex with double-stranded hairpin DNA; change per modification vs natural oligonucleotide

{"substance": "5′ -TCTTCTTXTTCTCT-3′: modified oligonucleotide with one X modification; C shows 2′-deoxy-5-methylcytidine (DNA TCTTCTTTTTCTCT; X modified nucleotide; 5-methylcytidines; (2)..(2) 2′-Deoxy-5-methylcytidine; (5)..(5) 2′-Deoxy-5-methylcytidine; misc_difference (8)..(8) Me-TaNA; (11)..(11) 2′-Deoxy-5-methylcytidine; (13)..(13) 2′-Deoxy-5-methylcytidine)", "ΔTm/mod.": "+5.0 °C"}
{"substance": "5′ -TCTTCYTYTYCTCT-3′: modified oligonucleotide with three separated Y modifications (DNA TCTTCTTTTTCTCT; three Y modified nucleotides; (2)..(2) 2′-Deoxy-5-methylcytidine; (5)..(5) 2′-Deoxy-5-methylcytidine; misc_difference (6)..(6) LNA; misc_difference (8)..(8) LNA; misc_difference (10)..(10) LNA; (11)..(11) 2′-Deoxy-5-methylcytidine; (13)..(13) 2′-Deoxy-5-methylcytidine)", "ΔTm/mod.": "+6.7 °C"}
{"substance": "5′ -TCTTCTYYYTCTCT-3′: modified oligonucleotide with three consecutive Y modifications (DNA TCTTCTTTTTCTCT; three Y modified nucleotides; (2)..(2) 2′-Deoxy-5-methylcytidine; (5)..(5) 2′-Deoxy-5-methylcytidine; misc_difference (7)..(7) LNA; misc_difference (8)..(8) LNA; misc_difference (9)..(9) LNA; (11)..(11) 2′-Deoxy-5-methylcytidine; (13)..(13) 2′-Deoxy-5-methylcytidine)", "ΔTm/mod.": "+5.0 °C"}
{"substance": "5′ -TCTTCTTYTTCTCT-3′: modified oligonucleotide with one Y modification; C shows 2′-deoxy-5-methylcytidine (DNA TCTTCTTTTTCTCT; Y modified nucleotide; 5-methylcytidines; (2)..(2) 2′-Deoxy-5-methylcytidine; (5)..(5) 2′-Deoxy-5-methylcytidine; misc_difference (8)..(8) LNA; (11)..(11) 2′-Deoxy-5-methylcytidine; (13)..(13) 2′-Deoxy-5-methylcytidine)", "ΔTm/mod.": "+6.0 °C"}
